experiment: Pharmacokinetic study after a single per os administration; type: in vivo, CD-1 mice; details: CD-1, mouse, serum, oral, 20 mg/kg
Readout kind: half-life (h)
A number alone suffices; assume h.

**Query** Record request: half-life value, item CS(=O)(=O)Nc1ccc([N+](=O)[O-])cc1Oc1ccccc1 [NIM]
**Result** 1.48
